Cited source for all entries: patent US20220127350A1

target: T1, human IL-17A (human, UniProt Q16552 24-155); experiment: SPR (Biacore T200), capture setup: biotinylated IL-17A captured, scFv as analyte
T1 construct: Recombinant human IL-17A (Peprotech Cat. No. 200-17), disulfide-linked homodimer from E. coli; Biotinylated or RPE-labelled in some assays; also called hIL-17A; IL-17A-RPE (labelled)
Below, each entry is listed with its recorded koff.
The figure you give is taken to be in s⁻¹; do not add the unit.

Observe how each entry below is paired with its result.
[[record]]
binder = "PRO592 (humanized anti-IL-17A scFv, STR graft of 27-31-C04) (scFv, VL-linker-VH; also called 27-31-C04-sc02; 27_31_C04_sc02) scFv: DIQMTQSPSSLSASVGDRVTITCQASESIYRYLSWYQQKPGKAPKLLIYLASTLTSGVPSRFSGSGSGTDFTLTISSLQPEDFATYYCQSNFGTASTTYYNTFGGGTKLTVLGGGGGSGGGGSGGGGSGGGGSEVQLVESGGGLVQPGGSLTLSCAASGFSFSGFYYMCWVRQAPGKGLEWIGCIDTGDGTTYYASWAKGRFTISRDNSKNTVYLQMNSLRAEDTAVYYCARDAAYGGYAYPAHGMDLWGPGTLVTVSS"
measurement_name = "koff"
reported_result = 0.000142

[[record]]
binder = "A1 (humanized anti-IL-17A scFv, CDR graft of 27-07-G02) (scFv, VL-linker-VH; also called 27-07-G02-sc01; 27_07_G02_sc01) scFv: DIQMTQSPSSLSASVGDRVTITCQASQTINYWLAWYQQKPGKAPKLLIYRASTLASGVPSRFSGSGSGTDFTLTISSLQPEDFATYYCQNYYYSTSRSYGFGGGTKLTVLGGGGGSGGGGSGGGGSGGGGSEVQLVESGGGLVQPGGSLRLSCAASGFSFSSDYWMCWVRQAPGKGLEWIGCIYAGDVDDTDYASWARGRFTISRDNSKNTVYLQMNSLRAEDTAVYYCARVDGFDITYFDLWGQGTLVTVSS"
measurement_name = "koff"
reported_result = 0.000112

[[record]]
binder = "PRO571 (humanized anti-IL-17A scFv, CDR graft of 27-31-C04) (scFv, VL-linker-VH; also called 27-31-C04-sc01; 27_31_C04_sc01) scFv: DIQMTQSPSSLSASVGDRVTITCQASESIYRYLSWYQQKPGKAPKLLIYLASTLTSGVPSRFSGSGSGTDFTLTISSLQPEDFATYYCQSNFGTASTTYYNTFGGGTKLTVLGGGGGSGGGGSGGGGSGGGGSEVQLVESGGGLVQPGGSLRLSCAASGFSFSGFYYMCWVRQAPGKGLEWIGCIDTGDGTTYYASWAKGRFTISRDNSKNTVYLQMNSLRAEDTAVYYCARDAAYGGYAYPAHGMDLWGQGTLVTVSS"
measurement_name = "koff"
reported_result = 0.000144


Then there is this binder:
Can you look up the measured koff of A2 (humanized anti-IL-17A scFv, STR graft of 27-07-G02) (scFv, VL-linker-VH; also called 27-07-G02-sc02) scFv: DIQMTQSPSSLSASVGDRVTITCQASQTINYWLAWYQQKPGKPPKLLIYRASTLASGVPSRFSGSGSGTDFTLTISSLQPEDFATYYCQNYYYSTSRSYGFGGGTKLTVLGGGGGSGGGGSGGGGSGGGGSEVQLVESGGGLVKPEGSLRLSCAASGFSFSSDYWMCWVRQAPGKGLEWIACIYAGDVDDTDYASWARGRFTISRDNSKNTVYLQMNSLRAEDTAVYYCARVDGFDITYFDLWGQGTLVTVSS for me?
0.000697
